Assay: MTT assay for cell viability in RAW 264.7 macrophages
Assay type: cell-based, murine
Conditions: mouse; 1 μM; murine RAW 264.7 macrophages; mean ± SD of three experiments
y if viability at 1 µM is below 90%. n if not; exact matches included in n.

{"Smiles representation": "COc1cc(-c2nn(-c3cccc(NC(=O)CN4CCCCC4)c3)cc2-c2ccncc2)ccc1Cl", "Answer label": "n"}
{"Smiles representation": "COc1cc(-c2nn(-c3cccc(NC(=O)CCN4CCN(Cc5ccccc5)CC4)c3)cc2-c2ccncc2)ccc1Cl", "Answer label": "y"}
{"Smiles representation": "COc1cc(-c2nn(-c3cccc(NC(=O)CCN4CCN(C)CC4)c3)cc2-c2ccncc2)ccc1Cl", "Answer label": "n"}
{"Smiles representation": "COc1cc(-c2nn(-c3cccc(NC(=O)CN4CCN(Cc5ccccc5)CC4)c3)cc2-c2ccncc2)ccc1Cl", "Answer label": "y"}
{"Smiles representation": "COc1cc(-c2nn(-c3cccc(NC(=O)CN4CCN(c5ccccc5)CC4)c3)cc2-c2ccncc2)ccc1Cl", "Answer label": "y"}
